Sourced from PubChem BioAssay (NCATS)

Test: Quantitative High-Throughput drug screen in 47 multiple myeloma cell lines against the NCATS MIPE library collection: RPMI8226_ATCC cell viability assay (AID 1919871); further: nearly all actives have a fitted effect of over 30% in size
Conditions: RPMI8226 myeloma viability, CellTiter-Glo ATP luminescence, 48 h; series mostly up to 45.8 µM
Records with an inconclusive call do not appear. Activity calls are given as the source filed them. The call rests on the fitted dose curve; in most records, active means well fitted cell-killing curve with a large enough effect; inconclusive means small, poorly fitted or top-dose-only effect, or effect the other way; inactive means no such curve, though single readings can be large or run the other way.
Your response should consist of one outcome taken from y = active, n = inactive

For orientation, consider the following solved cases.
{"columns": ["Molecule", "Cat"],
 "data": [
  ["Cc1ccccc1C(=O)Nc1ccc(C(=O)N2CCCC(O)c3cc(Cl)ccc32)c(C)c1 (stereo not given)", "n"],
  ["CC(=O)O[C@H]1C[C@@H]2CC[C@H]3[C@H]4C[C@H]([N+]5(C)CCCCC5)[C@@H](OC(C)=O)[C@@]4(C)CC[C@@H]3[C@@]2(C)C[C@H]1[N+]1(C)CCCCC1", "n"]
]}

# input Record lookup: outcome of this test for CCNC(=O)Nc1ccc(-c2nc3c(c(N4CCOC[C@H]4C)n2)CCN(C2COC2)C3)cc1 ?
# output y

# input Record lookup: outcome of this test for O=C1NC(=O)[C@@H](c2cn3c4c(cccc24)CCC3)[C@H]1c1c[nH]c2ccccc12 ?
# output y

# input Record lookup: outcome of this test for C[C@@H](Cc1cc2c(c(C(N)=O)c1)N(CCCO)CC2)NCCOc1ccccc1OCC(F)(F)F ?
# output n

# input Record lookup: outcome of this test for CN[C@H]1[C@@H](O)[C@@H]2O[C@@H]3O[C@H](C)CC(=O)[C@]3(O)O[C@@H]2[C@@H](NC)[C@H]1O ?
# output y

# input Record lookup: outcome of this test for Cn1cnc(=N)c2[nH]cnc21 ?
# output y

# input Record lookup: outcome of this test for C=Cc1c(C)c2cc3nc(cc4[nH]c(cc5nc(cc1[nH]2)C(C)=C5CCC(=O)O)c(CCC(=O)OC)c4C)[C@@]1(C)C3=CC=C(C(=O)OC)[C@H]1C(=O)OC ?
# output y

# input Record lookup: outcome of this test for C=CC(=O)Nc1cccc(Nc2nc(NC3CCC(N(C)C)CC3)nc3c2ncn3C(C)C)c1 (stereo not given) ?
# output y

# input Record lookup: outcome of this test for CN1[C@H]2CC(OC(=O)[C@@H](CO)c3ccccc3)C[C@H]1[C@H]1O[C@H]12 (stereo not given in full) ?
# output n

# input Record lookup: outcome of this test for FC(F)c1nc2ccccc2n1-c1nc(N2CCOCC2)nc(N2CCOCC2)n1 ?
# output y

# input Record lookup: outcome of this test for CCCCOc1ccc(C(=O)Nc2ccc(F)cc2F)cc1 ?
# output n

====

Assay: Quantitative High-Throughput drug screen in 47 multiple myeloma cell lines against the NCATS MIPE library collection: INA6_PLB cell viability assay (AID 1918965; further: nearly all actives have a fitted effect of over 55% in size)
Details: INA6 myeloma viability, CellTiter-Glo ATP luminescence, 48 h; series mostly up to 45.8 µM
Results filed as inconclusive are left out. Activity calls are given as the source filed them. The call rests on the fitted dose curve; in most records, active means well fitted cell-killing curve with a large enough effect; inconclusive means small, poorly fitted or top-dose-only effect, or effect the other way; inactive means no such curve, though single readings can be large or run the other way.
Your response should consist of one outcome taken from yes = active, no = inactive

For orientation, consider the following solved cases.
{"columns": ["Compound", "Cat"],
 "data": [
  ["Cc1nc(NC(=O)N2CCC[C@@H]2C(N)=O)sc1-c1ccnc(C(C)(C)C(F)(F)F)c1", "yes"],
  ["CC(C)n1cnc2c(NCCc3ccc(O)cc3)nc(-c3csc4ccccc34)nc21", "yes"]
]}

# input Record lookup: outcome of this test for CC(=O)N[C@H]1[C@@H]([C@H](O)[C@H](O)CO)OC(C(=O)O)=C[C@@H]1N=C(N)N ?
# output no
